- TARGET UNDER TEST: RPS6KA1 KD2 (human)
- TEST METHOD NOTES: KINOMEscan competition binding
- CONDITION CONTEXT: compound 10.0 µM
I'd appreciate it if you marked entries t when kinase still bound, per cent of control is lower than 20% and f when it is not.

Q: I wonder whether CSC1=NC(=O)/C(=C/c2c[nH]c(=O)c(-c3ccc(NS(C)(=O)=O)cc3)c2)S1 has kinase still bound, per cent of control below 20%. Can you tell?
A: f

Q: Threshold test, kinase still bound, per cent of control < 20%: CN(C)C1=NC(=O)/C(=C/c2ccc(-c3ccc(S(N)(=O)=O)cc3)o2)S1
A: f

Q: Quick check: does CC(C)Oc1cc(N2CCC(N(C)C)CC2)ccc1Nc1ncc2c(n1)N1CCC[C@H]1CC(=O)N2C have kinase still bound, per cent of control under 20%?
A: f

Q: Please state whether kinase still bound, per cent of control is below 20% for COc1cc(N2CCN(C)CC2)ccc1Nc1ncc2c(n1)N1CCC[C@H]1CC(=O)N2
A: t

Q: kinase still bound, per cent of control strictly < 20% for this compound? COc1cc(N2CCN(C)CC2)ccc1Nc1ncc2c(n1)N(C1CCCC1)C(C)CC(=O)N2 (centres undefined)
A: f

Q: State whether 20% exceeds kinase still bound, per cent of control recorded for COc1cc(N2CCN(C)CC2)ccc1Nc1ncc2c(n1)N(C)c1ccccc1C(=O)N2C .
A: t

Q: Hello, I'm reviewing records and need to know if kinase still bound, per cent of control of CN1C(=O)c2ccccc2N(C)c2nc(Nc3ccc(N4CCC(O)CC4)cc3)ncc21 is below 20%. Could you check?
A: f

Q: Quick check: kinase still bound, per cent of control of N=C1NC(=O)/C(=C/c2ccc(-c3csc4ccccc34)o2)S1 under 20%?
A: t

Q: Given COc1cc(N2CCC(O)CC2)ccc1Nc1ncc2c(n1)N(C)c1ccccc1C(=O)N2C , is recorded kinase still bound, per cent of control strictly lower than 20%?
A: f

----------
- System: FLT3 (human), P36888 [ITD]
- Sequence (P36888 whole entry, looked up, change not shown): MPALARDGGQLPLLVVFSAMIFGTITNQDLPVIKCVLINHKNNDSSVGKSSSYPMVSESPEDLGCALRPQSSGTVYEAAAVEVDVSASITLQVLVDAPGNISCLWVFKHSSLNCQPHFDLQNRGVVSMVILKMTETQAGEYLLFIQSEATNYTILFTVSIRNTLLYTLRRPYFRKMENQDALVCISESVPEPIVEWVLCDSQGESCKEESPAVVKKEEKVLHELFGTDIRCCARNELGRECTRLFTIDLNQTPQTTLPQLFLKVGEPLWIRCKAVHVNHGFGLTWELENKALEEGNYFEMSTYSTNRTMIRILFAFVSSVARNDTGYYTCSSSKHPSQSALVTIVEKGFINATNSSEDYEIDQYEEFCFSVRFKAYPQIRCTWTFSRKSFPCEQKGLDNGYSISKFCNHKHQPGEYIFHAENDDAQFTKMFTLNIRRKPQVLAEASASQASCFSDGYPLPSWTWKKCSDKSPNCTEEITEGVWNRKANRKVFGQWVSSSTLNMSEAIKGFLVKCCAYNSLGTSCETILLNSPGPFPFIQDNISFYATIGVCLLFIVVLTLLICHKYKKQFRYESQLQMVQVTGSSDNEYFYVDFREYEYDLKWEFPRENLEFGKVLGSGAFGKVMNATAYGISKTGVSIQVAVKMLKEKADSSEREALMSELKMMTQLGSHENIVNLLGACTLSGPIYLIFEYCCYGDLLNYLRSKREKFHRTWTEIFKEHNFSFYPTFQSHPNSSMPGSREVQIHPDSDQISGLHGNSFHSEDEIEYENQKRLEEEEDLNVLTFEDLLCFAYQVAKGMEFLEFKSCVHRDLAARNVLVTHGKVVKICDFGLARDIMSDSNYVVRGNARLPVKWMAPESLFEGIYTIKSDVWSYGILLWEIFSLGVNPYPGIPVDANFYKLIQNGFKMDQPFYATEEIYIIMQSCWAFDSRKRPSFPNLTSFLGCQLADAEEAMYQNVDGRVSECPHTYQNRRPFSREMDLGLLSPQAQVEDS
- TEST METHOD NOTES: KINOMEscan competition binding
- CONDITION CONTEXT: compound 10.0 µM
VALUE KIND: kinase still bound, per cent of control (%)
Form entry: value (%) — number only.

Record O=C1NC(=S)S/C1=C\c1ccc(-c2cncc3ccccc23)o1 ; system FLT3 (human), P36888 [ITD]; kinase still bound, per cent of control = 6.2

Per the reported FLT3 (human), P36888 [ITD] data, CN1C(=O)[C@H]2CCC[C@H]2N(C2CCCC2)c2nc(Nc3ccc(C(N)=O)cc3)ncc21 has kinase still bound, per cent of control of 20

Readout kinase still bound, per cent of control for COc1cc(N2CCN(C)CC2)ccc1Nc1ncc2c(n1)N(C)c1ccccc1N(C)C2=O , test system FLT3 (human), P36888 [ITD], was 92

Short answer on FLT3 (human), P36888 [ITD] for COc1cc(N2CCN(C)CC2)ccc1Nc1ncc2c(n1)N(C)c1sccc1C(=O)N2C , kinase still bound, per cent of control: 99

Measured on FLT3 (human), P36888 [ITD], CS(=O)(=O)Nc1ccc(-c2cncc(/C=C3\SC(=N)NC3=O)c2)cc1 has a documented kinase still bound, per cent of control of 25

For the compound CN1C(=O)c2ccccc2N(C)c2nc(NS(=O)(=O)c3ccc(N)cc3)ncc21 , the measured kinase still bound, per cent of control on FLT3 (human), P36888 [ITD] was 100

Here COc1cc(N2CCN(C)CC2)ccc1Nc1ncc2c(n1)Nc1ccccc1NC2=O was tested on FLT3 (human), P36888 [ITD], and its kinase still bound, per cent of control came to 63

With FLT3 (human), P36888 [ITD] as the test system, CN1CCN(c2ccc(C(=O)Nc3ncc4c(n3)N(C)c3ccccc3C(=O)N4C)cc2)CC1 showed kinase still bound, per cent of control of 100

Sample N=C1NC(=O)/C(=C/c2ccc(-c3cncc4ccccc34)o2)S1 , system: FLT3 (human), P36888 [ITD]. Its kinase still bound, per cent of control is 1.2

# CN1C(=O)c2ccccc2N(C)c2nc(Nc3ccc(N4CCC(O)CC4)cc3)ncc21 with FLT3 (human), P36888 [ITD]: kinase still bound, per cent of control is 52

----------
- TARGET UNDER TEST: UniProtKB O95819
- Sequence (O95819 whole entry, looked up): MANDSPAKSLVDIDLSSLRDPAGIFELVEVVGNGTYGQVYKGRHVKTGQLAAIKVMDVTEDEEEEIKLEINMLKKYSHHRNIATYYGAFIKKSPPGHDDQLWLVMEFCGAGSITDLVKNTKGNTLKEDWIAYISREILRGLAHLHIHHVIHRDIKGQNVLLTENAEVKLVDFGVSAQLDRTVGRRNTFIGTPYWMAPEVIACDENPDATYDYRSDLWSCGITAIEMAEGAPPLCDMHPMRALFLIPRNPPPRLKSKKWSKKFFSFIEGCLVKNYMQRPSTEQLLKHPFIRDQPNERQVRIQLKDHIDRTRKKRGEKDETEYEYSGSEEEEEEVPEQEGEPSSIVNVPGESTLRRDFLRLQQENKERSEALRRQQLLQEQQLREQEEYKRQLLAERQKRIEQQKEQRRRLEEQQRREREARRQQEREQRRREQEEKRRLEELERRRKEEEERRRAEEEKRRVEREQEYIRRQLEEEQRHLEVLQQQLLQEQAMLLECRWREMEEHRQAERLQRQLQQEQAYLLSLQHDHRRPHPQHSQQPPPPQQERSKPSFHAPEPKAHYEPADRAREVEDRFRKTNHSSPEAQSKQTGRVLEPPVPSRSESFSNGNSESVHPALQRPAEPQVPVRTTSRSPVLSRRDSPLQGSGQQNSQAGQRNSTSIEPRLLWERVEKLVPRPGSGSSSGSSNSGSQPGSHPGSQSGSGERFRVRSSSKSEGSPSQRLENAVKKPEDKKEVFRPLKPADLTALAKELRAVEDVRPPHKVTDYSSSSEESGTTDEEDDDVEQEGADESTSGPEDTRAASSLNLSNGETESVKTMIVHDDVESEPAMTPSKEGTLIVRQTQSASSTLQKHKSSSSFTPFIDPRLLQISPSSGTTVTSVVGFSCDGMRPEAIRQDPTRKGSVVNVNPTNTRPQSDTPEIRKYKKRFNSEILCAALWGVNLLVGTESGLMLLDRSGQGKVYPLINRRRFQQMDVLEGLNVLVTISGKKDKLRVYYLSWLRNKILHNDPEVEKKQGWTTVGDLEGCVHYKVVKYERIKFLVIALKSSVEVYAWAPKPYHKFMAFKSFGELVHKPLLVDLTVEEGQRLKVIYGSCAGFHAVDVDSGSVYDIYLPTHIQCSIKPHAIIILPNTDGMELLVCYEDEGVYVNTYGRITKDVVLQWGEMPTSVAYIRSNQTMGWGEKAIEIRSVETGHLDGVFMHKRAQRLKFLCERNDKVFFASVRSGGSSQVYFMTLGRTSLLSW
- TEST METHOD NOTES: KINOMEscan competition binding
- CONDITION CONTEXT: compound 10.0 µM
Categorized via kinase still bound, per cent of control: LOW (below 8%), MEDIUM (8% to below 80%), HIGH (80% or more)

Q: # bin label for COc1cc(N2CCC(O)CC2)ccc1Nc1ncc2c(n1)N1CCc3cccc(c31)C(=O)N2C
A: MEDIUM

Q: For this compound, which bin applies? CN1CCN(c2ccc(C(=O)Nc3ncc4c(n3)N(C)c3ccccc3C(=O)N4C)cc2)CC1
A: HIGH

Q: Exam item: assign CS(=O)C1=NC(=O)/C(=C/c2ccc(-c3ccc(S(N)(=O)=O)cc3)o2)S1 (stereo unspecified) to the correct category.
A: MEDIUM

Q: Could you place COc1cc(N2CCN(C)CC2)ccc1Nc1ncc2c(n1)N(C)c1ccccc1N(C)C2=O in its proper category? Many thanks.
A: HIGH

Q: Exam item: assign CN1C(=O)c2ccccc2N(C)c2nc(NS(=O)(=O)c3ccc(N)cc3)ncc21 to the correct category.
A: HIGH

Q: For this compound, which bin applies? COc1cc(N2CCN(C)CC2)ccc1Nc1ncc2c(n1)N(C)c1sccc1C(=O)N2C
A: HIGH

Q: Looking at N=C1NC(=O)/C(=C/c2c[nH]c(=O)c(-c3ccc(N4CCNCC4)nc3)c2)S1 , which class would you pick?
A: MEDIUM

Q: Which bin, given its kinase still bound, per cent of control, does O=C1NC(=O)/C(=C/c2c[nH]c(=O)c(-c3ccc(N4CCNCC4)nc3)c2)S1 occupy?
A: LOW

Q: Using the reported kinase still bound, per cent of control, which band applies to CN1C(=O)[C@H]2CCC[C@H]2N(C2CCCC2)c2nc(Nc3ccc4ncccc4c3)ncc21 ?
A: LOW

Q: GET /class?item= CN1C(=O)[C@H]2CCC[C@H]2N(C2CCCC2)c2nc(Nc3ccc(C(N)=O)cc3)ncc21
A: LOW

----------
- TARGET UNDER TEST: CSK (human) (UniProt P41240)
- Sequence (P41240 whole entry, looked up): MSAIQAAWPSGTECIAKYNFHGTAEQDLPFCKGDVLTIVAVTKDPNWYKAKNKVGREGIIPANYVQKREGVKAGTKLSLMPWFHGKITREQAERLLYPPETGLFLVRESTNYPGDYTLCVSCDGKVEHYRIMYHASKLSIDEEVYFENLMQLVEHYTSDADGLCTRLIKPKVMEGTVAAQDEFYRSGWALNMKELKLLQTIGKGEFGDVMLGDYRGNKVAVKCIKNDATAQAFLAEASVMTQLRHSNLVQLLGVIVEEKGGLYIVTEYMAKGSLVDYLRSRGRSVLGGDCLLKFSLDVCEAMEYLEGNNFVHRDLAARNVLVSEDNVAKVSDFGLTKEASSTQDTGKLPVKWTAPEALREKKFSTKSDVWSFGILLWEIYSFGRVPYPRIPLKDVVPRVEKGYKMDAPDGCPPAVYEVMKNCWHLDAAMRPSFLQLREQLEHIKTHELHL
- TEST METHOD NOTES: KINOMEscan competition binding
- CONDITION CONTEXT: compound 10.0 µM
VALUE KIND: kinase still bound, per cent of control (%)
Report only the number, with the unit % understood.

Lab note: COc1cc(N2CCN(C)CC2)ccc1Nc1ncc2c(n1)N(C)c1sccc1C(=O)N2C gave kinase still bound, per cent of control of 88

// CN1C(=O)c2ccccc2N(C)c2nc(Nc3ccc(N4CCC(O)CC4)cc3)ncc21 : kinase still bound, per cent of control value = 91

// sample COc1cc(N2CCN(C)CC2)ccc1Nc1ncc2c(n1)N(C)c1ccccc1N(C)C2=O , its kinase still bound, per cent of control was 95

----------
- TARGET UNDER TEST: PIM3 (human) (UniProt Q86V86)
- TEST METHOD NOTES: KINOMEscan competition binding
- CONDITION CONTEXT: compound 10.0 µM
Give kinase still bound, per cent of control for every item shown.

# kinase still bound, per cent of control (compound: COc1cc(N2CCN(C)CC2)ccc1Nc1ncc2c(n1)Nc1ccccc1NC2=O ) is 75%

Recorded kinase still bound, per cent of control (compound NS(=O)(=O)c1ccc(-c2ccc(/C=C3\SC(=O)NC3=O)o2)cc1 ): 4.9%

Recorded result, CN1C(=O)[C@H]2CCC[C@H]2N(C2CCCC2)c2nc(Nc3ccc(C(N)=O)cc3)ncc21 , kinase still bound, per cent of control: 6.4%

compound CS(=O)(=O)Nc1ccc(-c2ncc(/C=C3\SC(=N)NC3=O)s2)cc1 , kinase still bound, per cent of control observed: 2%

Reported kinase still bound, per cent of control ( COc1cc(C(N)=O)ccc1-c1ccc(/C=C2\SC(=N)NC2=O)o1 ) = 5.6%

Lookup result for CS(=O)(=O)Nc1ccc(-c2ccc(/C=C3\SC(=N)NC3=O)o2)cc1 ; measured kinase still bound, per cent of control: 5%

// recorded kinase still bound, per cent of control for O=C1NC(=S)S/C1=C\c1ccc(-c2cccc3ccccc23)o1 : 2.6%

Lab note: measured kinase still bound, per cent of control of CN1C(=N)NC(=O)/C1=C/c1ccc(-c2ccc(S(N)(=O)=O)cc2)o1 was 7.4%

Looking up N=C1NC(=O)/C(=C/c2ccc(-c3cccc4cc[nH]c34)o2)S1 , I see its kinase still bound, per cent of control listed as 4%

CN1C(=O)c2ccccc2N(C)c2nc(NS(=O)(=O)c3ccc(N)cc3)ncc21 yielded kinase still bound, per cent of control of 100%

// field: kinase still bound, per cent of control; key: N=C1NC(=O)/C(=C/c2ccc(-c3csc4ccccc34)o2)S1 ; value = 5.4%

Measured kinase still bound, per cent of control, N=C1NC(=O)/C(=C/c2ccc(-c3ccccc3O)o2)S1 : 2.1%

Just so you know, measured kinase still bound, per cent of control for NS(=O)(=O)c1ccc(-c2cccc(/C=C3\SC(=O)NC3=O)c2)cc1 came out at 5.1%

Record COc1cc(N2CCC(O)CC2)ccc1Nc1ncc2c(n1)N1CCc3cccc(c31)C(=O)N2C . Reported kinase still bound, per cent of control: 92%

# kinase still bound, per cent of control of O=C1NC(=O)/C(=C/c2ccc(-c3ccc(C(=O)Nc4ccc(N5CCNCC5)cc4)cc3)o2)S1 = 1.2%

Consider COc1cc(N2CCN(C)CC2)ccc1Nc1ncc2c(n1)N(C)c1sccc1C(=O)N2C . Its measured kinase still bound, per cent of control is 62%

Reported kinase still bound, per cent of control for Cc1cn(-c2cc(NC(=O)c3cccc4cc(-c5ccc(/C=C6\SC(=N)NC6=O)o5)ccc34)cc(C(F)(F)F)c2)cn1 was 1.9%

The measured kinase still bound, per cent of control associated with NS(=O)(=O)c1ccc(-c2ccc(/C=C3\C(=O)Nc4ccccc43)o2)cc1 reads 28%

Query CN1CCN(c2ccc(C(=O)Nc3ncc4c(n3)N(C)c3ccccc3C(=O)N4C)cc2)CC1 yields kinase still bound, per cent of control of 100%

The compound identified as CN1C(=N)NC(=O)/C1=C/c1ccc(-c2cccc3ccccc23)o1 registered its kinase still bound, per cent of control at 9.6%
